Recorded viability at 10 µM, one value per entry.
Test system: HL-60 (Acute Promyelocytic Leukemia)
test details: Cell viability analysis, leukemia HL-60
Assay type: cell-based, human
protocol conditions: Homo sapiens, HL-60, 72 h, drug 10 μM, 72 hours, WST-1, OD450 nm; read-out: cell viability (survival rate), HL-60
Where a name gives a salt, the structure may show the parent alone.
The answer is to be given in %; state only the numeric part.

Prompt line: Item: CCOc1ccc2nc3cc(N)ccc3c(N)c2c1 [Ethacridine lactate monohydrate] Test system: HL-60 (Acute Promyelocytic Leukemia) Read-out: viability at 10 µM Value: ?
Response line: 44.1

Prompt line: Item: "O=C(O)c1cccnc1Nc1cccc(C(F)(F)F)c1" Test system: HL-60 (Acute Promyelocytic Leukemia) Read-out: viability at 10 µM Value: ?
Response line: 132

Prompt line: Item: CCc1cc2c(cc1CC)CC(NC[C@H](O)c1ccc(O)c3[nH]c(=O)ccc13)C2 [Indacaterol Maleate] Test system: HL-60 (Acute Promyelocytic Leukemia) Read-out: viability at 10 µM Value: ?
Response line: 87.2

Prompt line: Item: "CC(C)(C)CC(C)(C)c1ccc(O)c(Cc2ccc(Cl)cc2Cl)c1" Test system: HL-60 (Acute Promyelocytic Leukemia) Read-out: viability at 10 µM Value: ?
Response line: 83

Prompt line: Item: "Cc1ccc2c(Cl)cc(Cl)c(O)c2n1" Test system: HL-60 (Acute Promyelocytic Leukemia) Read-out: viability at 10 µM Value: ?
Response line: 64.8

Prompt line: Item: O=C(O)c1cn(-c2ccc(F)cc2)c2cc(N3CCNCC3)c(F)cc2c1=O [Sarafloxacin HCl] Test system: HL-60 (Acute Promyelocytic Leukemia) Read-out: viability at 10 µM Value: ?
Response line: 112

Prompt line: Item: "CC(C)CN(C[C@@H](O)[C@H](Cc1ccccc1)NC(=O)O[C@H]1CCOC1)S(=O)(=O)c1ccc(N)cc1" Test system: HL-60 (Acute Promyelocytic Leukemia) Read-out: viability at 10 µM Value: ?
Response line: 111

Prompt line: Item: CC(=O)Nc1ncc([N+](=O)[O-])s1 [Nithiamide] Test system: HL-60 (Acute Promyelocytic Leukemia) Read-out: viability at 10 µM Value: ?
Response line: 102
